tested on: SF-539 CNS; assay: NCI tumour cell line growth inhibition, 48 h
Recorded GI50 values for a group of molecules are listed next.
measured-property: GI50

>>> df
                              smiles_string  measured_property  meas_value
0  CCOC(=O)Oc1c(OC)cc(C(=O)c2ccc(OC)c(OC(=O)CCl)c2OC)cc1OC               GI50    0.805 µM
1        CCN(Cc1ccc(F)cc1F)c1ccc(CO)c(Cl)c1               GI50     16.1 µM
2      O=C1C(Cl)=C(Oc2ccccc2)C(=O)c2ccccc21               GI50     5.96 µM
3  COc1cccc(-c2nc(-c3ccc(NS(=O)(=O)c4ccccc4)cc3)[nH]c2-c2ccnc(Br)c2)c1               GI50     2.53 µM
4  Cc1ccc2c(/C=C/C(=O)c3cc(CN4CCOCC4)c(O)c4nc(C)ccc34)cc(CN3CCOCC3)c(O)c2n1               GI50    0.459 µM
5                    O=c1oc2ccccc2c(Cl)c1Cl               GI50     4.07 µM
